test system: Escherichia coli TOP10; assay: shrunken log2 fold change of peptide-encoding DNA abundance (4.5 h post-induction vs induction); higher = less antimicrobial activity (less host growth inhibition); details: time post-induction: 4.5 h; library: site-saturation at positions 5, 18, 19, 20;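 further: peptides expressed intracellularly from a pBAD plasmid library in pooled LB shake-flask culture, induced with 0.3% L-arabinose, DNA abundance read by NGS, three biological replicates, DESeq2 with apeglm shrinkage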
Mark FALSE for shrunken log2 fold change values under -0.06, and TRUE for everything at or above.

Tell me whether shrunken log2 fold change is at least -0.06 here: RRIRPRPPRLPRPRPRPKDCPRP
TRUE

Tell me whether shrunken log2 fold change is at least -0.06 here: RRIRCRPPRLPRPRPRPAWTPRP
FALSE

Tell me whether shrunken log2 fold change is at least -0.06 here: RRIRKRPPRLPRPRPRPPFEPRP
TRUE

Tell me whether shrunken log2 fold change is at least -0.06 here: RRIRHRPPRLPRPRPRPSCFPRP
FALSE

Tell me whether shrunken log2 fold change is at least -0.06 here: RRIRYRPPRLPRPRPRPPYQPRP
FALSE

Tell me whether shrunken log2 fold change is at least -0.06 here: RRIRLRPPRLPRPRPRPLYEPRP
FALSE

Tell me whether shrunken log2 fold change is at least -0.06 here: RRIRHRPPRLPRPRPRPWRSPRP
FALSE

Tell me whether shrunken log2 fold change is at least -0.06 here: RRIRKRPPRLPRPRPRPSCNPRP
TRUE

Tell me whether shrunken log2 fold change is at least -0.06 here: RRIRARPPRLPRPRPRPCPCPRP
FALSE

Tell me whether shrunken log2 fold change is at least -0.06 here: RRIRGRPPRLPRPRPRPYKNPRP
FALSE

Tell me whether shrunken log2 fold change is at least -0.06 here: RRIRDRPPRLPRPRPRPGCHPRP
TRUE

Tell me whether shrunken log2 fold change is at least -0.06 here: RRIRERPPRLPRPRPRPDRQPRP
FALSE

Tell me whether shrunken log2 fold change is at least -0.06 here: RRIRHRPPRLPRPRPRPYHLPRP
FALSE

Tell me whether shrunken log2 fold change is at least -0.06 here: RRIRNRPPRLPRPRPRPNEGPRP
TRUE

The measurements presented in this section are drawn from the supplement of paper PMC9112550.
